Attribution: patent US7547729B2

Induction factor overview
Biological target: PPARα (Homo sapiens)
Construct: expressed in transfected cells; host or cells: COS-7 cells
Sequence (Q07869 239-466 limits assumed): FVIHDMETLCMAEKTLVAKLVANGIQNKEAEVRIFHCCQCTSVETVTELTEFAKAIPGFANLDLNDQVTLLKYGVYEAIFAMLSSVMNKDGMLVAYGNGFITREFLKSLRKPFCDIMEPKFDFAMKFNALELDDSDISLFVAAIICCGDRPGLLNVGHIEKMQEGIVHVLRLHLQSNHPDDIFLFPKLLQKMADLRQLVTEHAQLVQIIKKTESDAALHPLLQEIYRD
Test: PPARα/Gal4 transactivation system in COS-7 cells
Assay type: cell-based
Conditions: 0.01 μM, 24 hours

Use the examples below as a reference point.
• Cc1cc(/C=C/C(=O)c2ccc(Oc3ccccc3)cc2)cc(C)c1OC(C)(C)C(=O)O [compound 33] = 19.53
• COc1ccc(C(=O)/C=C/c2cc(C)c(OC(C)(C)C(=O)O)c(C)c2)cc1C [compound 37] = 1.54
• CSc1c(C)cc(C(=O)/C=C/c2cc(C)c(OC(C)(C)C(=O)O)c(C)c2)cc1C [compound 13] = 4.99
• CCCCCCSc1c(C)cc(C(=O)/C=C/c2cc(C)c(OC(C)(C)C(=O)O)c(C)c2)cc1C [compound 39] = 3.19
• Cc1cc(/C=C/C(=O)c2ccc(OCCSC3CCCCC3)cc2)cc(C)c1OC(C)(C)C(=O)O [compound 23] = 2.35

// sample COc1ccc(C(=O)/C=C/c2cc(C)c(OC(C)(C)C(=O)O)c(C)c2)cc1F [compound 35] , its Induction factor was 1.54

// sample Cc1cc(/C=C/C(=O)c2c(C)c(C)c(C)c(C)c2C)cc(C)c1OC(C)(C)C(=O)O [compound 31] , its Induction factor was 1.23
